# System: rodent lifetime carcinogenesis bioassay, tumor incidence TD50
# measurement-description: carcinogenic potency in animals, long-term in vivo studies, CPDB compilation (AID 1745844)
# measurement-context: mouse; strain B6C3F1; males; in feed; site: thyroid gland; lesion: follicular-cell adenoma; dosed 78 weeks; study length 96 weeks
value-type: TD50

Input: Which TD50 is listed for `COc1ccc(N)cc1N` ?
Output: 791 mg/kg/day

* * *

# Tested on: rodent lifetime carcinogenesis bioassay, tumor incidence TD50
# measurement-description: carcinogenic potency in animals, long-term in vivo studies, CPDB compilation (AID 1745844)
# measurement-context: rat; strain Sprague-Dawley; females; in feed; site: mammary gland; lesion: adenocarcinoma; dosed 42 weeks; study length 59 weeks
value-type: TD50

Input: Can you look up TD50 on rodent lifetime carcinogenesis bioassay, tumor incidence TD50 for `Cc1cc(C)nc(-c2ccc([N+](=O)[O-])o2)n1` ?
Output: 6.45 mg/kg/day
